TARGET ENTITY: SARS-CoV-2 NSP3 Mac1 (Severe acute respiratory syndrome coronavirus 2)
Format: binding
Parameters: contains a conserved macrodomain enzyme (Mac1)
STUDY CONDITIONS: DSF dose responsiveness, 1 µM nsp3 mac1; adj p given
Each record is given T if its reported Spearman est (compound concentration vs apparent Tm) is strictly below 0.06. Records at or above 0.06 are given F.

INSERT INTO results (molecule, target_entity, label) VALUES
  ('O=C(Cc1ccc(-n2cccn2)cc1)OCC1CCCNC1=O (stereo not drawn)', 'SARS-CoV-2 NSP3 Mac1 (Severe acute respiratory syndrome coronavirus 2)', 'T'),
  ('Cc1n[nH]c2ncc(CN3CC(C)Oc4c(F)cccc43)cc12 (stereo not drawn)', 'SARS-CoV-2 NSP3 Mac1 (Severe acute respiratory syndrome coronavirus 2)', 'F'),
  ('CN1C(=O)[C@H]2CN(C(=O)c3ncnc4[nH]ccc34)C[C@H]2C1=O', 'SARS-CoV-2 NSP3 Mac1 (Severe acute respiratory syndrome coronavirus 2)', 'T'),
  ('O=C(O)C1(F)CN(c2cc(Nc3ccccc3)ncn2)CC12CCC2 (stereo not drawn)', 'SARS-CoV-2 NSP3 Mac1 (Severe acute respiratory syndrome coronavirus 2)', 'F'),
  ('O=C1CSc2cc(C(=O)OC3c4ccccc4CC3F)ccc2N1 (stereo not drawn)', 'SARS-CoV-2 NSP3 Mac1 (Severe acute respiratory syndrome coronavirus 2)', 'T'),
  ('NC(=O)c1cc(N2CCCC[C@H]2C(=O)O)ncn1', 'SARS-CoV-2 NSP3 Mac1 (Severe acute respiratory syndrome coronavirus 2)', 'F'),
  ('CC1CCc2n[nH]cc2C1C(=O)N(C)OCc1ccccc1 (stereo not drawn)', 'SARS-CoV-2 NSP3 Mac1 (Severe acute respiratory syndrome coronavirus 2)', 'F'),
  ('O=c1nc(N2CC(Cn3cnnc3)C3(CCC3)C2)cc(Cl)[nH]1 (stereo not drawn)', 'SARS-CoV-2 NSP3 Mac1 (Severe acute respiratory syndrome coronavirus 2)', 'T');

###

TARGET ENTITY: SARS-CoV-2 NSP3 Mac1 (Severe acute respiratory syndrome coronavirus 2, UniProt P0DTD1)
ASSAY REMARKS: biochemical
Type: binding
STUDY CONDITIONS: HTRF ADPr-conjugated peptide displacement; read-out: IC50
pIC50: −log10 of the molar value.
READOUT KIND: pIC50

INSERT INTO measurements (compound, target_entity, readout_kind, reading) VALUES
  ('O=C(NCc1c(C(=O)O)[nH]c2ccccc12)c1ccc2[nH]c(O)nc2c1', 'SARS-CoV-2 NSP3 Mac1 (Severe acute respiratory syndrome coronavirus 2, UniProt P0DTD1)', 'pIC50', 4.80),
  ('Cl.O=C(O)C1CN(c2ncnc3[nH]c4cc(F)ccc4c23)CCO1 (stereo not shown)', 'SARS-CoV-2 NSP3 Mac1 (Severe acute respiratory syndrome coronavirus 2, UniProt P0DTD1)', 'pIC50', 4.39),
  ('O=C(O)CCC1CN(c2ncnc3[nH]c4cc(F)ccc4c23)CCO1 (stereo not shown)', 'SARS-CoV-2 NSP3 Mac1 (Severe acute respiratory syndrome coronavirus 2, UniProt P0DTD1)', 'pIC50', 4.16),
  ('O=C(NCc1c(C(=O)O)[nH]c2ccccc12)c1ccc2[nH]cnc2c1', 'SARS-CoV-2 NSP3 Mac1 (Severe acute respiratory syndrome coronavirus 2, UniProt P0DTD1)', 'pIC50', 4.61);

###

TARGET ENTITY: SARS-CoV-2 NSP3 Mac1 (Severe acute respiratory syndrome coronavirus 2, UniProt P0DTD1)
Type: binding
STUDY CONDITIONS: ligand occupancy after refinement (phenix.refine); crystal soaking of Mac1
Decide using Refined occupancy: a value greater than or equal to 30 is Fulfilled, a smaller one is Not fulfilled.

INSERT INTO measurements (molecule, label) VALUES
  ('Cc1noc(CC2CCCN(c3ncnc4[nH]c5cc(F)ccc5c34)C2)n1 (stereo not drawn)', 'Not fulfilled'),
  ('O=C(NC1c2cccc(O)c2CC1C(=O)O)c1ccc(Nc2cccnc2)cc1 (stereo not drawn)', 'Not fulfilled'),
  ('CCc1c[nH]c2ncnc(N3CCCC(S(C)(=O)=O)C3)c12 (stereo not drawn)', 'Fulfilled'),
  ('O=C(Nc1ccc(C(=O)NC2c3ccccc3CC2C(=O)O)cc1)NC1CC1 (stereo not drawn)', 'Not fulfilled'),
  ('O=C(O)[C@@H]1CCC[C@H](Nc2ncnc3[nH]c4cc(F)ccc4c23)C1', 'Fulfilled'),
  ('CCNc1ncc(C(=O)NCCn2cnc(C(=O)O)c2)s1', 'Not fulfilled'),
  ('Nc1ncnc2c1ncn2Cc1cccc(C(F)(F)F)c1', 'Fulfilled'),
  ('O=C(c1ncnc2[nH]ccc12)N1CC=CC12CCCCC2', 'Fulfilled'),
  ('COc1cncc(C(=O)NCCNC(=O)c2ncccc2O)c1', 'Not fulfilled');

###

TARGET ENTITY: SARS-CoV-2 NSP3 Mac1 (Severe acute respiratory syndrome coronavirus 2, UniProt P0DTD1)
Assay type: binding
STUDY CONDITIONS: PanDDA 1-BDC of the event; compound stock 100 mM, Echo dispense volume 40 nl
READOUT KIND: 1-BDC

INSERT INTO measurements (compound, target_entity, reading) VALUES
  ('O=C(O)CC1CN(c2ncnc3[nH]c4ccccc4c23)CCO1 (stereo not shown)', 'SARS-CoV-2 NSP3 Mac1 (Severe acute respiratory syndrome coronavirus 2, UniProt P0DTD1)', 0.06),
  ('Cl.O=C(O)C1CN(c2ncnc3[nH]c4cc(F)ccc4c23)CCO1 (stereo not shown)', 'SARS-CoV-2 NSP3 Mac1 (Severe acute respiratory syndrome coronavirus 2, UniProt P0DTD1)', 0.15),
  ('O=S1(=O)CC(CNc2ncnc3[nH]c4cc(F)ccc4c23)C1', 'SARS-CoV-2 NSP3 Mac1 (Severe acute respiratory syndrome coronavirus 2, UniProt P0DTD1)', 0.1),
  ('O=C(O)C1(F)CN(c2ncnc3[nH]c4cc(Br)ccc4c23)CC12CCC2 (stereo not shown)', 'SARS-CoV-2 NSP3 Mac1 (Severe acute respiratory syndrome coronavirus 2, UniProt P0DTD1)', 0.08),
  ('CC1(C)CN(c2ncnc3[nH]c4ccccc4c23)CC(CC(=O)O)O1 (stereo not shown)', 'SARS-CoV-2 NSP3 Mac1 (Severe acute respiratory syndrome coronavirus 2, UniProt P0DTD1)', 0.05),
  ('O=C(O)[C@@H]1CCC[C@H](Nc2ncnc3[nH]c4cc(F)ccc4c23)C1', 'SARS-CoV-2 NSP3 Mac1 (Severe acute respiratory syndrome coronavirus 2, UniProt P0DTD1)', 0.28),
  ('O=C(O)C[C@@H]1CN(c2ncnc3[nH]c4cc(F)ccc4c23)C[C@H](CO)O1', 'SARS-CoV-2 NSP3 Mac1 (Severe acute respiratory syndrome coronavirus 2, UniProt P0DTD1)', 0.12),
  ('CS(=O)(=O)NC(=O)C1CN(c2ncnc3[nH]c4cc(F)ccc4c23)CCO1 (stereo not shown)', 'SARS-CoV-2 NSP3 Mac1 (Severe acute respiratory syndrome coronavirus 2, UniProt P0DTD1)', 0.1),
  ('[O-][n+]1cccc(Nc2ncnc3[nH]c4cc(F)ccc4c23)c1', 'SARS-CoV-2 NSP3 Mac1 (Severe acute respiratory syndrome coronavirus 2, UniProt P0DTD1)', 0.18),
  ('CN(Cc1ccccn1)c1ncnc2[nH]c3cc(F)ccc3c12', 'SARS-CoV-2 NSP3 Mac1 (Severe acute respiratory syndrome coronavirus 2, UniProt P0DTD1)', 0.14);

###

TARGET ENTITY: SARS-CoV-2 NSP3 Mac1 (Severe acute respiratory syndrome coronavirus 2)
ASSAY REMARKS: biochemical
Format: binding
STUDY CONDITIONS: Ki estimation from HTRF-derived IC50, Cheng-Prusoff, peptide 400nM, Kd 2.68µM; read-out: Ki***
pKi: −log10 of the molar value.
Decide using pKi: a value greater than or equal to 4 is MET, a smaller one is NOT MET.

INSERT INTO results (molecule, label) VALUES
  ('Nc1cc(NC(=O)NC2CC2)ccc1C(=O)NC1c2cccc(O)c2CC1C(=O)O (centres unmarked) [Z8539_0059]', 'MET'),
  ('NC(=O)Nc1ccc(C(=O)NC2c3cccc(O)c3CC2C(=O)O)cc1 (centres unmarked) [Z8539_0041]', 'MET'),
  ('O=C(O)CC1CN(c2ncnc3[nH]ccc23)CCO1 (centres unmarked) [Z9572]', 'NOT MET'),
  ('CS(=O)(=O)NC(=O)C1(F)CN(c2ncnc3[nH]c4cc(F)ccc4c23)CC12CCC2 (centres unmarked) [LL123_0036]', 'MET');

###

TARGET ENTITY: SARS-CoV-2 NSP3 Mac1 (Severe acute respiratory syndrome coronavirus 2, UniProt P0DTD1)
Format: binding
STUDY CONDITIONS: PanDDA event map, 1 minus background density correction; crystal soaking of Mac1
READOUT KIND: 1-BDC

INSERT INTO results (compound, reading) VALUES
  ('OCc1cn(C2CCCN(c3ncnc4[nH]ccc34)C2)nn1 (stereo not drawn) [Compound Z7864]', 0.05),
  ('CS(=O)(=O)C1CCCN(c2ncnc3[nH]c4cc(F)ccc4c23)C1 (stereo not drawn) [LL1_0027]', 0.06),
  ('Cc1nnc(CNc2cnc(N)c(Cl)n2)n1C1CC1 [ZINC000893101964]', 0.04),
  ('O=c1nc(N2CC(Cn3cnnc3)C3(CCC3)C2)cc(Cl)[nH]1 (stereo not drawn) [FRESH00020289192]', 0.08),
  ('O=C(O)[C@@H]1CCCN(C(=O)c2ccnc3[nH]ccc23)C1 [REAL250000548538]', 0.08),
  ('O=S1(=O)CC(CNc2ncnc3[nH]ccc23)C1 [SRH-0005]', 0.09),
  ('O=C(Nc1ccccc1)Nc1ccc(C(=O)NC2c3cccc(O)c3CC2C(=O)O)cc1 (stereo not drawn) [Z8539_0023]', 0.17),
  ('O=C(Nc1ccc(C(=O)NC2c3cccc(O)c3CC2C(=O)O)cn1)NC1CC1 (stereo not drawn) [Compound Z8539_0054]', 0.14),
  ('CCc1c[nH]c2ncnc(N3CCCC(S(C)(=O)=O)C3)c12 (stereo not drawn) [Z1027]', 0.17);

Origin of measurements: paper PMC9926234
